For each record, write down the corresponding Z-score.
MEASUREMENT_TARGET: Human IP6K1 (Homo sapiens, UniProt Q92551)
Construct: GST (N, cleaved yes); made in house; host or cells: C43 E. coli, pGEX-6P-2
Sequence (Q92551 whole entry): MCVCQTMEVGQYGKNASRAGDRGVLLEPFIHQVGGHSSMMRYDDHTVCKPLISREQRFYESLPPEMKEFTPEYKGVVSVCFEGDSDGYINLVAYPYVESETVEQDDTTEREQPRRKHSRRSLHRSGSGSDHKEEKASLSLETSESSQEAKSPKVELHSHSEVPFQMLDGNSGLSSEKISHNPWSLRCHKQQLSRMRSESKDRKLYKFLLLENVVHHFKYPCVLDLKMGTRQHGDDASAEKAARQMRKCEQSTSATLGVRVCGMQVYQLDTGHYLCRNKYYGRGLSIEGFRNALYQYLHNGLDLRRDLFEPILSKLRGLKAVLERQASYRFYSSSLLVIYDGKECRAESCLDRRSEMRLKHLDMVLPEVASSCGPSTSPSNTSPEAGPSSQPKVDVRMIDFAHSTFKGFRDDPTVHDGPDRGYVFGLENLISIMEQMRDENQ
PROCEDURE_SUMMARY: IP6K1 high-throughput screen of the Sigma LOPAC (ADP-Glo Max, single point);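 note: final compound concentration 10µM in 5% DMSO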
Assay type: biochemical
TEST_SETTINGS: LOPAC single-point screen; Z-score relative to plate average and StDev
Answers are plain numbers.

Known results for molecules:
# input Query (molecule): O=C1NC(c2cccc([N+](=O)[O-])c2)=CCN1c1ccccc1O [Icilin] ; field requested: Z-score
# output -1.081

# input Request: Cl.NCC(O)C1CCCCCCC1 (stereo not drawn)
# output -0.5713

# input Request: NCC1(CC(=O)O)CCCCC1 [Gabapentin]
# output -0.7066

# input Request: "Cc1cccc(C#Cc2ccccc2)n1.Cl"
# output -0.562

# input Request: O=C1c2c(O)ccc(O)c2C(=O)c2c(NCCNCCO)ccc(NCCNCCO)c21 [Mitoxantrone]
# output -1.024

Give Z-score for each of the items listed below.
1. Cc1nc2n(c(=O)c1CCN1CCC(c3noc4cc(F)ccc34)CC1)CCCC2 [Risperidone]
2. NC(=O)c1ncn([C@@H]2O[C@H](CO)[C@@H](O)[C@H]2O)c1O [Mizoribine]
3. O=C1CN(/N=C/c2ccc(-c3ccc([N+](=O)[O-])cc3)o2)C(O)=N1 [Dantrolene sodium]
4. CN1C(=O)CCS(=O)(=O)C1c1ccc(Cl)cc1 (stereo not drawn) [Chlormezanone]
5. CCCCCCCCCCCCCCCC(=O)NCCO [Palmitoylethanolamide]
6. Br.Br.N=C(N)SCCc1ccc(CCSC(=N)N)cc1 [1,4-PBIT dihydrobromide]

# output
-0.4841
-0.4906
-1.107
-0.5542
-0.4944
-0.7647

----------
MEASUREMENT_TARGET: human IP6K2 (Homo sapiens, UniProt Q9UHH9)
Construct: GST (N, cleaved yes); made in house; host or cells: C43 E. coli, pGEX-6P-2
Sequence (Q9UHH9 whole entry): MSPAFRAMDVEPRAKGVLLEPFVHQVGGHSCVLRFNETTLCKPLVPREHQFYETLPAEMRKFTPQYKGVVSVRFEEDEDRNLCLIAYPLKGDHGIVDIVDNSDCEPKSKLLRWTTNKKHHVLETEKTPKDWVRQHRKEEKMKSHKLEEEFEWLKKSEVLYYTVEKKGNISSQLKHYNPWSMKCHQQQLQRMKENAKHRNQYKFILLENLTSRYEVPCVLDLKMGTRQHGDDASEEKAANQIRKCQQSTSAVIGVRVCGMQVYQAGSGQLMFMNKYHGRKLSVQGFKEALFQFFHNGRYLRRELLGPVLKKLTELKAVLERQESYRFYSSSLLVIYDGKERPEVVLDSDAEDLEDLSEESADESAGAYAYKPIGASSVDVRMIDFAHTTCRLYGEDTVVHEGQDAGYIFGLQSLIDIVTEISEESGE
PROCEDURE_SUMMARY: IP6K2 inhibition dose-response assay (ADP-Glo Max)
Type: biochemical
MEASUREMENT_NAME: pIC50
Answers are plain numbers, as −log10 of the molar value.

# input Query (molecule): NC(Cc1cc(O)c(O)cc1O)C(=O)O (racemic) [6-Hydroxy-DL-Dopa] ; field requested: pIC50
# output 5.78

----------
For each record, write down the corresponding Z-score.
MEASUREMENT_TARGET: Human IP6K1 (Homo sapiens)
Construct: GST (N, cleaved yes); made in house; host or cells: C43 E. coli, pGEX-6P-2
PROCEDURE_SUMMARY: IP6K1 high-throughput screen of the Sigma LOPAC (ADP-Glo Max, single point);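 note: final compound concentration 10µM in 5% DMSO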
Assay type: biochemical
TEST_SETTINGS: LOPAC single-point screen; Z-score relative to plate average and StDev
Counter-ions that a name gives are not always drawn.
Numbers only.

Known results for compounds:
# input Query (compound): "O=C(O)c1cccnc1Nc1cccc(C(F)(F)F)c1" ; field requested: Z-score
# output -1.237

# input Request: "O=C(O)CCC/C=C\C[C@@H]1[C@@H](/C=C/[C@H](O)C2Cc3ccccc3C2)[C@@H](F)C[C@@H]1O"
# output -0.7133

# input Request: CN1C[C@H](C(=O)N[C@]2(C)O[C@@]3(O)[C@@H]4CCCN4C(=O)[C@H](Cc4ccccc4)N3C2=O)C[C@@H]2c3cccc4[nH]cc(c34)C[C@H]21 [Dihydroergotamine methanesulfonate]
# output -1.315

# input Request: NC(CO)C(=O)NNCc1ccc(O)c(O)c1O (stereo not shown) [Benserazide hydrochloride]
# output -1.297

# input Request: O.c1cnc2c(c1)ccc1cccnc12 [1,10-Phenanthroline monohydrate]
# output -0.6537

Give Z-score for each of the items listed below.
1. CN1CCN2c3ccccc3Cc3ccccc3C2C1 (stereo not shown) [Mianserin hydrochloride]
2. CC[C@H](C)C(=O)O[C@H]1CCC=C2C=C[C@H](C)[C@H](CC[C@@H]3C[C@@H](O)CC(=O)O3)[C@H]21
3. CN1CCC(c2c[nH]c3ccc(O)cc23)CC1.O=C(O)/C=C\C(=O)O [BRL 54443 maleate]
4. CO/N=C(\C(=O)N[C@@H]1C(=O)N2C(C(=O)O)=C(COC(C)=O)CS[C@H]12)c1csc(N)n1 [Cefotaxime sodium]
5. CCN(CC)c1ncnc2c1ncn2[C@@H]1O[C@H](COP(=O)([O-])OP(=O)([O-])C(Br)(Br)P(=O)([O-])O)[C@@H](O)[C@H]1O.[Na+].[Na+].[Na+] [ARL 67156 trisodium salt]
6. CC1=C[C@@H]2c3cccc4[nH]cc(c34)C[C@H]2N(C)C1
7. NCCCS(=O)(=O)O.[Na] [3-Amino-1-propanesulfonic acid sodium]

# output
1. -0.4944
2. -0.7275
3. -0.7419
4. -0.7702
5. -0.6802
6. -0.7128
7. -0.8903
